biological target: Apelin receptor (Homo sapiens); assay: potency against CXCR6 with APJ panel – cell-based, beta-arrestin, DiscoveRx, uHTS hits, dose response (AID 624129); conditions: CXCR6 beta-arrestin (DiscoveRx) antagonist cell assay, APJ, run 2, dose range 1
Kindly supply the reported pIC50 values for the records listed here.
Numbers only, as −log10 of the molar value.

Below is a list of compounds. For each, state its recorded pIC50.
1. O=[N+]([O-])c1ccc(Sc2cccc[n+]2[O-])c2nonc12
2. CC1(C)CC(=O)C2=C(C1)OC1=C(C(=O)CC(C)(C)C1)C2c1ccc(O)cc1O
3. CNc1cc(Cl)c2nonc2c1[N+](=O)[O-]

4.76
5.05
5.31

* * *

molecular target: C-X-C chemokine receptor type 6 (Homo sapiens); experiment: potency against CXCR6 with APJ panel – cell-based, beta-arrestin, DiscoveRx, uHTS hits, dose response (AID 624129); conditions: CXCR6 beta-arrestin (DiscoveRx) antagonist cell assay, CXCR6, run 2, dose range 1
quantity_measured: log10(IC50) (log10 of the value in µM)
All values: log10 IC50 [µM].

INSERT INTO assay_data (molecule, quantity_measured, reported) VALUES
  ('COc1ccc(C(=O)/C(=C\c2ccco2)N2C=CC=CC2=C(C#N)C#N)cc1', 'log10(IC50)', 0.71);

Required: log10(IC50), one value per molecule below.
1. CCn1c(Cl)c(C=O)s/c1=N\S(=O)(=O)c1ccccc1
2. O=C(Nc1ccccc1Cl)/C(Cl)=C(\Cl)S(=O)c1ccccc1 (configuration not stated)
3. O=C(CN1CCN(S(=O)(=O)c2ccc(Br)cc2)CC1)Nc1ccc2c(c1)OCO2
4. C/C(=N\NC(=O)C(C)Oc1ccc([N+](=O)[O-])cc1)c1ccccn1 (configuration not stated)

0.71
1.02
1.28
0.65

Look up log10(IC50) for the entries below, preserving their order.
1. C=CS(=O)(=O)c1c2cc(OC)ccc2nc2ccc(OC)cc12
2. Cc1nnc(Sc2cc(NCCCO)c([N+](=O)[O-])c3nonc23)s1
3. Cc1ccc(C(C[N+](=O)[O-])Sc2ccc(N)cc2)cc1 (configuration not stated)
4. Cc1[nH][nH]c(=O)c1C(c1c(C)[nH][nH]c1=O)c1cn(Cc2ccc(F)cc2)c2ccccc12
5. C/C(=N\NC(=O)COc1ccccc1-c1ccccc1)c1ccccn1

1: 1.00; 2: 0.98; 3: 1.38; 4: 1.44; 5: 0.47

* * *

Field: IC50. Provide a value for each of the compounds that follow.
target: C-X-C chemokine receptor type 6 (Homo sapiens); assay: potency against CXCR6 with APJ panel – cell-based, beta-arrestin, DiscoveRx, uHTS hits, dose response (AID 624129); settings: CXCR6 beta-arrestin (DiscoveRx) antagonist cell assay, CXCR6, run 2, dose range 2
One number for each entry, in µM.

Example entries begin here.
INSERT INTO results (compound, quantity_measured, reported) VALUES
  ('COc1cc(/C=C/c2ccc3c(Br)cc(Br)c(O)c3n2)ccc1O', 'IC50', 12.5),
  ('Cc1cccc(NC(=S)NNc2ncc(C(F)(F)F)cc2Cl)c1', 'IC50', 14.7),
  ('COc1cc(/C=C(\C#N)c2nc3ccccc3o2)ccc1O', 'IC50', 42.1),
  ('C=C1CCN([C@@H](Cc2ccccc2)C(=O)NCCC(C)C)S(=O)(=O)c2ccccc21', 'IC50', 13.3),
  ('CS(=O)(=O)c1ncc(Cl)c(C(=O)Nc2ccc(OC(F)F)cc2)n1', 'IC50', 14.2),
  ('O=C(NC(=S)N(CCc1ccccc1)CCc1ccccc1)c1ccco1', 'IC50', 43.2),
  ('O=C(C#Cc1cccc([N+](=O)[O-])c1)c1ccccc1', 'IC50', 14.4),
  ('Cn1nc([N+](=O)[O-])nc1Sc1cccc2cccnc12', 'IC50', 9.55),
  ('O=C(NCc1cccnc1)/C(=C\c1ccc(-c2cccc(Cl)c2)o1)S(=O)(=O)c1ccccc1', 'IC50', 15.7),
  ('C=C1C(=O)[C@]23C[C@H]1CCC2[C@@]1(C)C(C[C@@H]3O)[C@](C)(C(=O)OC)CC[C@@H]1OC(C)=O (some centres undefined)', 'IC50', 6.85);

List the reported IC50 of each compound below.
1. CN(c1ccccc1)c1ccc(/C=C/[N+](=O)[O-])cc1
2. Nc1cc(Cl)c2nonc2c1[N+](=O)[O-]

1: 12.5; 2: 7.35

Give IC50 for each of the items listed below.
1. CCOc1ccc(N(CC(=O)N/N=C/c2ccccn2)S(=O)(=O)c2ccc(Cl)cc2)cc1
2. O=C(C#Cc1ccccc1)c1ccco1
3. Cc1c(CCCl)c(Cl)n2c(nc3ccccc32)c1C#N
4. O=C(Nc1nccs1)c1sc2cc(Cl)ccc2c1Cl
5. Cc1ccc(/C=N/NC(=S)N2CCOCC2)cc1
6. C/C(=N\NC(=S)NCCc1ccccc1)c1ccc(Cl)cc1Cl
7. C/C(=N/NC(=O)c1ccc(C(C)(C)C)cc1)c1ccccn1

1. 11.9
2. 8.16
3. 7.02
4. 10.3
5. 2.7
6. 11.1
7. 0.719

Give IC50 for each listed item.
1. C=C1C(=O)OC2C1CCC(C)=C1C(=O)C3OC3(C)C12 (centres undefined)
2. CC(Oc1cccc(Br)c1)C(=O)NNC(=O)c1ccccn1 (centres undefined)
3. Cc1c(N=Nc2c(O)[nH]c(=S)[nH]c2=O)c(=O)n(-c2ccccc2)n1C
4. CCOC(=O)CS(=O)(=O)c1nc(-c2ccccc2)cc(C(F)(F)F)n1

8.85
16.9
28.6
20.2

* * *

Please provide measured IC50 for the entries that follow.
molecular target: Apelin receptor (Homo sapiens); assay: potency against CXCR6 with APJ panel – cell-based, beta-arrestin, DiscoveRx, uHTS hits, dose response (AID 624129); conditions: CXCR6 beta-arrestin (DiscoveRx) antagonist cell assay, APJ, run 3, dose range 1

Worked cases, answers included:
INSERT INTO results (compound, quantity_measured, reported) VALUES
  ('COc1cccc(-n2nc(C#N)c(Cl)cc2=O)c1', 'IC50', '6.56 µM'),
  ('C=C1C(=O)[C@]23C[C@H]1CCC2[C@@]1(C)C(C[C@@H]3O)[C@](C)(C(=O)OC)CC[C@@H]1OC(C)=O (stereo not given in full)', 'IC50', '45.6 µM'),
  ('CNc1ccc2oc(C[C@H]3O[C@@]4(CC[C@H]3C)O[C@H]([C@H](C)C(=O)c3ccc[nH]3)[C@H](C)C[C@H]4C)nc2c1C(=O)O', 'IC50', '> 80 µM'),
  ('O=C(Nc1nc(-c2ccccn2)cs1)Nc1ccc(F)cc1F', 'IC50', '8.89 µM'),
  ('N#CC(C#N)=C1C=CC=CN1/C(=C\c1ccco1)C(=O)c1ccc(Br)cc1', 'IC50', '> 80 µM');

Go through the items and report each one's IC50.
1. C/C(=N\NC(=O)C1COc2ccccc2O1)c1ccccn1 (stereo not given)
2. CC(Oc1ccc(F)cc1)C(=O)Nc1nc(-c2ccccn2)cs1 (stereo not given)
3. COc1ccc(/C=C/c2ccc3cccc(O)c3n2)c(OC)c1OC

["6.22 µM", "10.6 µM", "6.98 µM"]

# return IC50 for each item in the list
1. O=S(=O)(/C=C/C=C/S(=O)(=O)c1ccccc1)c1ccccc1
2. CCCCCCN1C=C/C(=C\C=C(C#N)C#N)c2ccccc21

["> 80 µM", "27.1 µM"]

* * *

Please provide measured pIC50 for the entries that follow.
target: C-X-C chemokine receptor type 6 (Homo sapiens); experiment: potency against CXCR6 with APJ panel – cell-based, beta-arrestin, DiscoveRx, uHTS hits, dose response (AID 624129); details: CXCR6 beta-arrestin (DiscoveRx) antagonist cell assay, CXCR6, dose range 1, mean IC50 across replicates
One number for each entry, as −log10 of the molar value.

Record excerpt, results attached:
INSERT INTO assay_data (compound, reported) VALUES
  ('O=C1C(Cc2ccccc2)Nc2ncnc(N3CCN(c4ccccc4)CC3)c2N1Cc1ccc(Cl)cc1 (stereo not given)', 5.71),
  ('COc1ccc(-n2nnnc2S(=O)(=O)CC(=O)N2CCCCC2)cc1', 4.72),
  ('Cc1ccc(NC(=S)NNc2ccc(C(=O)O)cc2[N+](=O)[O-])cc1C', 4.31),
  ('O=C1C(Cc2ccccc2)Nc2ncnc(N3CCN(c4ccccc4)CC3)c2N1Cc1ccc(Br)cc1 (stereo not given)', 5.91),
  ('CN(CC(=O)Nc1cc(S(=O)(=O)N2CCCC2)ccc1Cl)Cc1cccs1', 4.94),
  ('Nc1nc(N)c2c(ccc3c2ccn3Cc2cccc([N+](=O)[O-])c2)n1', 4.77),
  ('CCCc1cc(=O)oc2cc(OC(=O)CN3C(=O)NC4(CCCC4)C3=O)ccc12', 4.30),
  ('COc1cc(/C=C/[N+](=O)[O-])ccc1OC(=O)c1cccnc1', 4.59);

# batch size: 6; output pIC50 per entry
1. CC(=O)N1N=C(c2cccs2)CC1c1cccc([N+](=O)[O-])c1 (stereo not given)
2. Cc1ccc(OCCN2C(=O)c3ccccc3C2=O)c([N+](=O)[O-])c1
3. CCC(C)c1ccc(O)c(NC(=S)NC(=O)c2cccnc2)c1 (stereo not given)
4. CC1(C)CC(=O)C(C=Nc2ccc(C(=O)c3ccccc3)cc2N=CC2=C(O)CC(C)(C)CC2=O)=C(O)C1
5. C/C(=N\NC(=S)NCCc1ccccc1)c1ccc(Cl)cc1Cl
6. C=CCSC1=N/C(=C\c2cc(OCC)c(OC(C)=O)c([N+](=O)[O-])c2)C(=O)S1

4.63
5.27
4.89
4.95
4.93
4.33

Provide reported pIC50 for each item, in the same order as listed.
1. O=C(C#Cc1cccc([N+](=O)[O-])c1)c1ccccc1
2. COc1ccc(CN2C(=O)C(Cc3ccccc3)Nc3ncnc(N4CCN(c5ccccc5)CC4)c32)cc1 (stereo not given)

1. 4.87
2. 5.26

Give pIC50 for each listed item.
1. Cc1ccccc1NC(=S)NNc1ncc(C(F)(F)F)cc1Cl
2. C=C(CN(C)C)C(=O)c1ccc(OC2OC(COC(C)=O)C(OC(C)=O)C(OC(C)=O)C2OC(C)=O)cc1 (stereo not given)
3. CCOC(=O)C1CCCN(c2c(C(=O)c3ccccc3)cnc3ccc(OC)cc23)C1 (stereo not given)

4.82
4.65
4.84
